Just for reference, patent US11414424B2 is where these values come from.

test system: bovine cardiac myofibrils; test: Myofibril assay: PK/LDH-coupled steady-state ATPase activity of skinned bovine cardiac myofibrils; assay type: biochemical; settings: Ca2+ activating to 75% of maximal rate
Property: CDMF75 IC15; scope: individual molecules
Observable: CDMF75 IC15

| Molecule | System tested | Observable | Observed |
| --- | --- | --- | --- |
| NC(=O)C12CC([C@@H]3C(=O)N(c4ncc(Cl)cc4F)CC(=O)N3Cc3ccc(C(F)F)cc3)(C1)C2 | bovine cardiac myofibrils | CDMF75 IC15 | >39 µM |
| O=C1CN(c2ncc(Cl)cc2F)C(=O)C2(CC3(COC3)C2)N1Cc1ccc(F)cc1 | bovine cardiac myofibrils | CDMF75 IC15 | 0.7 µM |
| CC(C)N1CC(=O)N(Cc2ccc(Cl)cc2)C2(CCN(c3ccc(F)cn3)C2)C1=O (stereo not drawn) | bovine cardiac myofibrils | CDMF75 IC15 | 1.0 µM |
| CC(C)N1CC(=O)N(Cc2ccc(Cl)cc2)C2(CN(c3cnn(C)c3)C2)C1=O | bovine cardiac myofibrils | CDMF75 IC15 | 2.6 µM |
| CNC(=O)N1CCC2(C1)C(=O)N(c1ccc(C#N)cc1)CC(=O)N2Cc1ccc(C(F)(F)F)cc1 (stereo not drawn) | bovine cardiac myofibrils | CDMF75 IC15 | 4.6 µM |
| CC(C)N1CC(=O)N(Cc2ccc(C(F)(F)F)cc2)C2(CCN(C(=O)Nc3ccncc3)C2)C1=O (stereo not drawn) | bovine cardiac myofibrils | CDMF75 IC15 | 19.8 µM |
| CC(C)C(=O)N1CC[C@]2(C1)C(=O)N(c1ccc(C#N)cc1F)CC(=O)N2Cc1ccc(C(F)(F)F)cc1 | bovine cardiac myofibrils | CDMF75 IC15 | 2.3 µM |
| Cn1cc(NC(=O)N2CC3(C2)C(=O)N(c2ccc(C#N)c(F)c2)CC(=O)N3Cc2ccc(C(F)(F)F)cc2)cn1 | bovine cardiac myofibrils | CDMF75 IC15 | 0.9 µM |
| CC(C)N1CC(=O)N(Cc2ccc(Cl)cc2)C(c2ccc(Cl)cn2)C1=O (stereo not drawn) | bovine cardiac myofibrils | CDMF75 IC15 | 11.6 µM |
| CC(C)N1CC(=O)N(Cc2ccc(Cl)cc2)C2(CN(c3ccncn3)C2)C1=O | bovine cardiac myofibrils | CDMF75 IC15 | 5.7 µM |
| CC(C)N1CC(=O)N(Cc2ccc(Cl)cc2)C2(CCN(C(=O)NC3CC3)C2)C1=O (stereo not drawn) | bovine cardiac myofibrils | CDMF75 IC15 | 20.5 µM |
| CC(C)N1CC(=O)N(Cc2ccc(Cl)cc2)C2(CN(c3ccc(C(N)=O)nn3)C2)C1=O | bovine cardiac myofibrils | CDMF75 IC15 | 7.8 µM |
| CC(=O)N1CC(C2C(=O)N(c3ncc(Cl)cc3C)CC(=O)N2Cc2ccc(C(F)(F)F)cc2)C1 (stereo not drawn) | bovine cardiac myofibrils | CDMF75 IC15 | 19.9 µM |
| CC(=O)N1CC2(C1)CC1(C2)C(=O)N(c2ncc(Cl)cc2F)CC(=O)N1Cc1ccc(F)cc1 | bovine cardiac myofibrils | CDMF75 IC15 | 2.68 µM |
| COCC1C(=O)N(Cc2ccc(Cl)cc2)C2(CN(c3ccc(C#N)cn3)C2)C(=O)N1C(C)C (stereo not drawn) | bovine cardiac myofibrils | CDMF75 IC15 | 26.4 µM |
